# ASSAY NAME: Toxicity in Rattus norvegicus (rat)
# Assay type: organism-based
# CONDITIONS: in vivo, read-out: LC50 (the source's name)
OBSERVED PROPERTY: LD50 (mg/kg)
// return numeric value only (unit: mg/kg, not printed)

Bench note: what LD50 did CNC(=O)O/N=C(\SC)C(=O)N(C)C show? 3.1

----------
# Test system: Meloidogyne incognita
# ASSAY NAME: Nematocidal activity against Meloidogyne incognita (root-knot nematode) assessed as mortality after 24 hr
# Type: functional
OBSERVED PROPERTY: LC50 (µg/mL)
// return numeric value only (unit: µg/mL, not printed)

// map CC1=C[C@@H]2OO[C@H]1C[C@@H]2C(C)C to recorded LC50 (system: Meloidogyne incognita) 51

// map C=C(C)[C@H]1C[C@@H]2OO[C@H]1C(OC(C)=O)=C2C to recorded LC50 (system: Meloidogyne incognita) 51

// map C=C(C)[C@H]1C[C@H]2OO[C@@H]1C(OC(C)=O)=C2C to recorded LC50 (system: Meloidogyne incognita) 50

// map C=C(C)[C@H]1C[C@H]2OO[C@@H]1C=C2C to recorded LC50 (system: Meloidogyne incognita) 12

Further cases:
// map CC(C)C12C=CC(C(=O)O)(CC1)OO2 (stereo unspecified) to recorded LC50 (system: Meloidogyne incognita) 2

// map CNC(=O)O/N=C(\SC)C(=O)N(C)C to recorded LC50 (system: Meloidogyne incognita) 0.07

----------
# System: Meloidogyne incognita
# ASSAY NAME: Nematocidal activity against Meloidogyne incognita (root-knot nematode) assessed as mortality after 24 hr
# Type: functional
OBSERVED PROPERTY: log10 LC50 (log10 of the value in µg/mL)
Scale type: logarithmic (base 10). Underlying LC50 unit: µg/mL.

Some solved cases for reference:
// map C=C(C)[C@H]1C[C@@H]2OO[C@H]1C=C2C to recorded log10 LC50 (system: Meloidogyne incognita) 1.36

// map CC(C)C12C=CC(CO)(CC1)OO2 (stereo not given) to recorded log10 LC50 (system: Meloidogyne incognita) 1.74

// map CC(C)C12C=CC(C)(CC1)OO2 (stereo not given) to recorded log10 LC50 (system: Meloidogyne incognita) 1.72

Further cases:
// map CC1=C[C@H]2OO[C@@H]1C[C@@H]2C(C)C to recorded log10 LC50 (system: Meloidogyne incognita) 1.40

// map COC(=O)C12C=CC(C(C)C)(CC1)OO2 (stereo not given) to recorded log10 LC50 (system: Meloidogyne incognita) 0.30

----------
Quick reference for mortality at 200 µg/mL among some compounds
# System: Aphelenchoides besseyi
# ASSAY NAME: Nematocidal activity against Aphelenchoides besseyi assessed as mortality at 200 ug/ml after 24 hr
# Assay type: functional

Some solved cases for reference:
// map COC(=O)C12C=CC(C(C)C)(CC1)OO2 (stereo not given) to recorded mortality at 200 µg/mL (system: Aphelenchoides besseyi) 100%

// map CC(C)C12C=CC(CO)(CC1)OO2 (stereo not given) to recorded mortality at 200 µg/mL (system: Aphelenchoides besseyi) < 50%

// map CC(C)C12C=CC(C)(CC1)OO2 (stereo not given) [ASCARIDOLE] to recorded mortality at 200 µg/mL (system: Aphelenchoides besseyi) < 50%

// map CC(C)C12C=CC(C(=O)O)(CC1)OO2 (stereo not given) to recorded mortality at 200 µg/mL (system: Aphelenchoides besseyi) 100%

Let's switch to this compound now.
// map C=C(C)[C@H]1C[C@H]2OO[C@@H]1C(OC(C)=O)=C2C to recorded mortality at 200 µg/mL (system: Aphelenchoides besseyi) < 50%
